Recorded values, source the nanobody polyreactivity screen of Harvey et al. (2022).

test: yeast display, Sf9 membrane polyspecificity reagent, FACS + sequencing; frameworks hold sequencing errors
metric: polyreactivity (PSR sort gate)

{"residues": "QVQLVESGGGLVHAGGSLRLSCAASGRIFVGYTMGGYRQGPGKERELVAAISWDGDITYYADSVKGRFTISRDKAKNTVYLQMNSLKPEDTAVYYCAVDLPVSESHHTLTFELDYWGQGSQVTVSS", "metric": "polyreactivity (PSR sort gate)", "endpoint-result": "low polyreactivity"}
{"residues": "QVQLVESGGGLVQAGGSLRLSCAASGSTFAWYAMGWYRQAPGKERELVAVITSTGRTYYADSVKGRFTISRDNAKNTVYLQMNSLKPEDSAVYYCAAQYGGGYLKPYRREYWGQGTQVTVSS", "metric": "polyreactivity (PSR sort gate)", "endpoint-result": "high polyreactivity"}
{"residues": "QVQLVESGGGLVQAGGSLRLICAASGSTFGDYDMGWYRQAPGKETELVAAISNGGSTYYADSVKGRFTISRDYAKNTVYLQMNSLKREETAVYYCNADNVEIRSTYEYGRYLYGYWGQGTQVTVSS", "metric": "polyreactivity (PSR sort gate)", "endpoint-result": "low polyreactivity"}
{"residues": "QVQLVESGGGLVQAGGSLRLSCDASGSIFRYYGMGWYRQAPGKERELVAAISARGGSTRYADSVKGRFTISRDNAKNTVYLQMNSLKPEDTAVYYCAAGYPYDYDYWGQGTQVTVSS", "metric": "polyreactivity (PSR sort gate)", "endpoint-result": "high polyreactivity"}
{"residues": "QVQLVESGGGLVQAGGSLRLSCAASGNTFGDNAMGWYRQAPGKERELVAAISTGGNTYYADSVKGRFTISRDNAKNTVYLQMNSLKPEDTAVYYCNAKWIPDTLFGIHETEGDYWGQGTQVTVSS", "metric": "polyreactivity (PSR sort gate)", "endpoint-result": "low polyreactivity"}

----------
assay: yeast display, Sf9 membrane polyspecificity reagent, FACS + sequencing; frameworks hold sequencing errors
metric: polyreactivity (PSR sort gate)

{"residues": "QVQLVESGGGLVQAGGSLRLSCAASGIIFWTYTMGWYRQAPGKERELVAAISSGGSTTYADSVKGRFTISRDNSMNTVFLQMNWLKPEDTAVYYCAKRRQYQRSYNYWGKGTQVTVSS", "metric": "polyreactivity (PSR sort gate)", "endpoint-result": "low polyreactivity"}
{"residues": "QVQLVESGGGLVQAGRSLRLSCAASGSTFHPYAMGWYRQAPGKERELVAAINSGDNTYYADSVKGRFTISRDNAKNTVYLQMNSLKPEDTAVYYCAVRYWDESHTEYDYWGQGTQVTVSS", "metric": "polyreactivity (PSR sort gate)", "endpoint-result": "low polyreactivity"}
{"residues": "QVQLVESGGGLVQAGGSLRLSCAASGSILFHYAMGWYRQAPGKERELVAAISRRGGSTYYADSVKGRFTISRDNAKNTVYFQMNSLKPEDNAVYYCAKYPSAYVDSDVTYDMDYWGQGTQVTVSS", "metric": "polyreactivity (PSR sort gate)", "endpoint-result": "low polyreactivity"}
{"residues": "QVQLVESGGGLVQAGGSLRLSCAASGSIFIVYAMGWYRQAPGKERELVATITSGGSTNYADSVKGRFTISRDNAKNTVYLQMNSLKPEDTAVYYCAAESYWGSGVVPGYDYWGQGTQVTVSS", "metric": "polyreactivity (PSR sort gate)", "endpoint-result": "low polyreactivity"}
{"residues": "QVQLVESGGGLVQAGGSLRLSCAASGSTFPFYAMGWYRPAPGKERELVAAITSGGSTYADSVKGRFTISRDNAKNSVYLQMNSLKPEDTAVYYCAASWPRWWRFGYWGQGTQVTVSS", "metric": "polyreactivity (PSR sort gate)", "endpoint-result": "low polyreactivity"}
